Molecular target: Mitogen-activated protein kinase kinase kinase 5 (Homo sapiens, UniProt Q99683)
Sequence (Q99683 whole entry): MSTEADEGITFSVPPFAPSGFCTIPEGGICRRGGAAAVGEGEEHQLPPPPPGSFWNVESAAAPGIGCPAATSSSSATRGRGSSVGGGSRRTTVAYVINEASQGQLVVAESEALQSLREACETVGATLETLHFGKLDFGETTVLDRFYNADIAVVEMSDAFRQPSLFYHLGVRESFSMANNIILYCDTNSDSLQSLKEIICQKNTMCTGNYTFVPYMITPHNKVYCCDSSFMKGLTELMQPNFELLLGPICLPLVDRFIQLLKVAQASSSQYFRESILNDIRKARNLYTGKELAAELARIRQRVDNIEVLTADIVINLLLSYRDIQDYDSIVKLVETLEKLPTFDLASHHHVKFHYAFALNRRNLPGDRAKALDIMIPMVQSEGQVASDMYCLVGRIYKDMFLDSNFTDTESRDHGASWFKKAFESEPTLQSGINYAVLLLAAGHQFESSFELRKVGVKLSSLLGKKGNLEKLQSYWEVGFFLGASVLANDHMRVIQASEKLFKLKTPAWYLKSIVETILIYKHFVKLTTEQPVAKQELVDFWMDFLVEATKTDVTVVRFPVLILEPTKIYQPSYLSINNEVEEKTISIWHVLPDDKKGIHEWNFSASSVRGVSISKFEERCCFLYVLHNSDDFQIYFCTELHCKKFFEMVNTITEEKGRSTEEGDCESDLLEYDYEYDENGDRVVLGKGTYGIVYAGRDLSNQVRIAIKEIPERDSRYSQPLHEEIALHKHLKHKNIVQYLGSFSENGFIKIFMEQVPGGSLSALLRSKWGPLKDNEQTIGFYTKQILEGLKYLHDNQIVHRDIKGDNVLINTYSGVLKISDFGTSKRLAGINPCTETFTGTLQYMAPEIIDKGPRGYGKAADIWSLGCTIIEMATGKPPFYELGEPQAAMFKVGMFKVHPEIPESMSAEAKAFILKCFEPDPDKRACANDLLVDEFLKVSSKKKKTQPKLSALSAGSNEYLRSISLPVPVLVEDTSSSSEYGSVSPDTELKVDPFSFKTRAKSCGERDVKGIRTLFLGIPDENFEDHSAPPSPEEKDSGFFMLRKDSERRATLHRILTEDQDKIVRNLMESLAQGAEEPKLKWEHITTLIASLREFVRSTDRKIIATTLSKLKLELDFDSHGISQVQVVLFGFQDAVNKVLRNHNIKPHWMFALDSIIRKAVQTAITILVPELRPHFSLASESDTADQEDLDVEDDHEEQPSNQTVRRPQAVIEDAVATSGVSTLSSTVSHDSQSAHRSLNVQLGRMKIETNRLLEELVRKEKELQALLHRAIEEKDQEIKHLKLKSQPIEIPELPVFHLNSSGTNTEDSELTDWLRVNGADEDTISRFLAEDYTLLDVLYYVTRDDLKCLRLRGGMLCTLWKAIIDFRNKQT
Test: Kinase Assay: The ASK1 enzymatic assay was run following Promega ASK1 Kinase Enzyme System (Cat #V3881). The kit provides the protocol, enzymes and all reagents necessary to run an assay.The compounds, enzyme, substrate and ATP were diluted in provided assay buffer. The final concentration of the enzyme was 50 nM, substrate (Myelin basic protein) 1 μg/mL and ATP 10 μM. The compound and the enzyme were pre-incubated in a 384-well white solid bottom plate (Greiner, Cat #784075) for 10 minutes. After incubation, the substrate and ATP were added and incubated for an additional 60 minutes. After 60 minutes, ADP-Glo™ was added and the plate was incubated for another 40 minutes. After 40 minutes, Kinase Detection Reagent was added and the plate was incubated for 45 minutes. After 45 minutes, the plate was read on a Perkin Elmer EnVision using luminescence read (0.5 seconds/well).
MEASURED_ENDPOINT: IC50

Quick note, IC50 for CC(=O)Nc1cccc(-c2cc3c(s2)C(=O)N(c2cccc(-c4nncn4C4CC4)n2)C3)c1 landed at < 1000 nM

The origin of these recorded values is ChEMBL document CHEMBL5729301.
